Please provide measured MIC for the entries that follow.
# Tested on: P. aeruginosa PAO1-LAC (wild type, empty cassette)
# Measurement Protocol: microbe, parasite or virus in culture
# Assay type: cell-based
# Experimental Parameters: Pseudomonas aeruginosa, at least three independent measurements, read-out: MIC
Answers are plain numbers, in µg/mL.

Examples from the recorded data:
[
  {
    "Smiles Text": "Oc1cc(Cl)ccc1Oc1ccc(Cl)cc1Cl",
    "Unit Abbrev": "µg/mL",
    "MIC": 1020
  },
  {
    "Smiles Text": "CN[C@H](CC(C)C)C(=O)N[C@H]1C(=O)N[C@@H](CC(N)=O)C(=O)N[C@H]2C(=O)N[C@H]3C(=O)N[C@H](C(=O)N[C@H](C(=O)O)c4cc(O)cc(O)c4-c4cc3ccc4O)[C@H](O)c3ccc(c(Cl)c3)Oc3cc2cc(c3O[C@@H]2O[C@H](CO)[C@@H](O)[C@H](O)[C@H]2O[C@H]2C[C@](C)(N)[C@H](O)[C@H](C)O2)Oc2ccc(cc2Cl)[C@H]1O",
    "Unit Abbrev": "µg/mL",
    "MIC": 1020
  }
]

Query compound follows.
Measured MIC, `NCC[C@H](O)C(=O)N[C@@H]1C[C@H](N)[C@@H](O[C@H]2O[C@H](CN)[C@@H](O)[C@H](O)[C@H]2O)[C@H](O)[C@H]1O[C@H]1O[C@H](CO)[C@@H](O)[C@H](N)[C@H]1O` : 2

---

Could you please report measured MIC for the items listed next?
# System: P. aeruginosa PaΔ3-LAC (efflux-deficient)
# Measurement Protocol: microbe, parasite or virus in culture
# Assay type: cell-based
# Experimental Parameters: Pseudomonas aeruginosa, at least three independent measurements, read-out: MIC
Give bare numbers, in µg/mL.

Known results for compounds:
[
  {
    "Compound": "CCn1cc(C(=O)O)c(=O)c2ccc(C)nc21",
    "MIC [µg/mL]": 8
  },
  {
    "Compound": "CO[C@@H]1[C@@H](OC(N)=O)[C@@H](O)[C@H](Oc2ccc3c(O)c(NC(=O)c4ccc(O)c(CC=C(C)C)c4)c(=O)oc3c2C)OC1(C)C",
    "MIC [µg/mL]": 32
  },
  {
    "Compound": "Oc1cc(Cl)ccc1Oc1ccc(Cl)cc1Cl",
    "MIC [µg/mL]": 32
  },
  {
    "Compound": "C[C@@H](O)[C@H]1C(=O)N2C(C(=O)O)=C(S[C@@H]3CN[C@H](C(=O)N(C)C)C3)[C@H](C)[C@H]12",
    "MIC [µg/mL]": 0.125
  },
  {
    "Compound": "CC[C@H]1OC(=O)[C@H](C)[C@@H](O[C@H]2C[C@@](C)(OC)[C@@H](O)[C@H](C)O2)[C@H](C)[C@@H](O[C@@H]2O[C@H](C)C[C@H](N(C)C)[C@H]2O)[C@](C)(O)C[C@@H](C)CN(C)[C@H](C)[C@@H](O)[C@]1(C)O",
    "MIC [µg/mL]": 4
  },
  {
    "Compound": "CN(C)[C@@H]1C(O)=C(C(N)=O)C(=O)[C@@]2(O)C(O)=C3C(=O)c4c(O)cccc4[C@@](C)(O)[C@H]3C[C@@H]12",
    "MIC [µg/mL]": 2
  },
  {
    "Compound": "CC1(C)S[C@@H]2[C@H](NC(=O)C(C(=O)O)c3ccccc3)C(=O)N2[C@H]1C(=O)O (stereo partly shown)",
    "MIC [µg/mL]": 1
  },
  {
    "Compound": "CC[C@H]1OC(=O)[C@H](C)[C@@H](O[C@H]2C[C@@](C)(OC)[C@@H](O)[C@H](C)O2)[C@H](C)[C@@H](O[C@@H]2O[C@H](C)C[C@H](N(C)C)[C@H]2O)[C@](C)(O)C[C@@H](C)C(=O)[C@H](C)[C@@H](O)[C@]1(C)O",
    "MIC [µg/mL]": 16
  }
]

Query compound follows.
MIC reading for `Cc1onc(-c2ccccc2Cl)c1C(=O)N[C@@H]1C(=O)N2[C@@H]1SC(C)(C)[C@@H]2C(=O)O` : 128
